# targetSystem: UniProt:P00533
# Sequence (P00533 669-1210): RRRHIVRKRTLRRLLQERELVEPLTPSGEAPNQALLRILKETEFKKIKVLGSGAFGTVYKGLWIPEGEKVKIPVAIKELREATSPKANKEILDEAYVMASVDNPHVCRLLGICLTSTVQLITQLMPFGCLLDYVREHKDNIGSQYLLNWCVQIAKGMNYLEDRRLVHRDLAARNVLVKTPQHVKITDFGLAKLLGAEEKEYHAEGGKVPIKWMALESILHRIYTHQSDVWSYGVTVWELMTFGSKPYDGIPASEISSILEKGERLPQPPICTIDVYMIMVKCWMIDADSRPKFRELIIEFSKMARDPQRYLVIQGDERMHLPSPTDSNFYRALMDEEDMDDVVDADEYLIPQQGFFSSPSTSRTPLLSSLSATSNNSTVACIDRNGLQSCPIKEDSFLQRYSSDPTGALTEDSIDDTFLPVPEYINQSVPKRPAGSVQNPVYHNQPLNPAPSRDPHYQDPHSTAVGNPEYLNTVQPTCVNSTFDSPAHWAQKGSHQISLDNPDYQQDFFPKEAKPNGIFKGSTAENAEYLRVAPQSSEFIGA
# experimentalDetails: WT-EGFR Kinase Assay (TR-FRET, 2 mM ATP)
# Assay type: biochemical
# appliedConditions: read-out: EGFR Wildtype 2 mM ATP IC50 [mol/l] (median)
Record form. Attribute: IC50. Fill in for each entry.

The compound listed as O=C(Cc1ccc(F)cc1)Nc1cc(-c2[nH]c3cccnc3c2-c2ccc(Cl)s2)ccn1 [Example 17] shows IC50 equal to > 20 µM

The compound listed as CC(C(=O)Nc1cc(-c2[nH]c3cccnc3c2-c2ccccn2)ccn1)c1ccc(F)cc1 (single isomer, unassigned; (-)) [Example 8] shows IC50 equal to > 20 µM

The compound listed as O=C(Cc1ccc(F)cc1)Nc1cc(-c2[nH]c3nccnc3c2-c2ccccn2)ccn1 [Example 19] shows IC50 equal to > 20 µM

The compound listed as O=C(Cc1ccc(Cl)cc1)Nc1cc(-c2[nH]c3cccnc3c2-c2ccccn2)ccn1 [Example 42] shows IC50 equal to > 20 µM

The compound listed as O=C(Cc1ccc(F)cc1)Nc1cc(-c2[nH]c3ccnnc3c2-c2ccccn2)ccn1 [Example 21] shows IC50 equal to > 20 µM

The compound listed as O=C(Cc1ccc(F)cc1)Nc1cc(-c2[nH]c3cccnc3c2-c2cccc(F)c2)ccn1 [Example 15] shows IC50 equal to > 20 µM

The compound listed as CN1CCN(c2ccnc3c(-c4ccccn4)c(-c4ccnc(NC(=O)Cc5ccc(F)cc5)c4)[nH]c23)CC1 [Example 38] shows IC50 equal to > 20 µM

* * *

# targetSystem: CSNK1A1 (Homo sapiens (Human), UniProt P48729)
# Sequence (P48729 whole entry): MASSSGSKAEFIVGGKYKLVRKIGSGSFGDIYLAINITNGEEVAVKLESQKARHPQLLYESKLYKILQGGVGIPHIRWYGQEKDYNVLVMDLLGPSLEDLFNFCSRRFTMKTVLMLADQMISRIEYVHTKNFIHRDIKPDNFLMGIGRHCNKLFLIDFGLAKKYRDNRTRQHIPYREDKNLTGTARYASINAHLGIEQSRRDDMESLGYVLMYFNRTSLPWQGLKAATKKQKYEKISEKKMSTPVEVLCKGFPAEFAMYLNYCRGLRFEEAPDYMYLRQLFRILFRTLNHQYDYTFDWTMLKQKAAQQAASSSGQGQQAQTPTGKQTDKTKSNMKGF
# experimentalDetails: CSNK1A1 High ATP Assay (ADP-Glo, 1 mM ATP)
# Assay type: biochemical
# appliedConditions: median, read-out: CSNK1A1 high ATP assay IC50 [mol/l] (median)
pIC50: −log10 of the molar value.
Parameter threshold = 7. Response is Y when pIC50 meets or exceeds it, else N.

Query: Can CC(C(=O)Nc1cc(-c2[nH]c3cccnc3c2-c2ccccn2)ccn1)c1ccc(F)cc1 (single isomer, unassigned; (+)) [Example 7] be said to have pIC50 at or above 7?
Result: Y

Query: Can Cc1cc2[nH]c(-c3ccnc(NC(=O)C(C)c4ccc(F)cc4)c3)c(-c3ccccn3)c2nc1F (racemic) [Example 28] be said to have pIC50 at or above 7?
Result: Y

Query: Can O=C(Cc1ccccc1)Nc1cc(-c2[nH]c3cccnc3c2-c2ccccn2)ccn1 be said to have pIC50 at or above 7?
Result: Y

Query: Can Cc1cc(CC(=O)Nc2cc(-c3[nH]c4cccnc4c3-c3ccccn3)ccn2)ccc1F be said to have pIC50 at or above 7?
Result: Y

Query: Can CC(C(=O)Nc1cc(-c2[nH]c3cccnc3c2-c2ccccn2)ccn1)c1ccc(F)cc1 (racemic) [Example 6] be said to have pIC50 at or above 7?
Result: Y

Query: Can COc1ccnc2c(-c3ccccn3)c(-c3ccnc(NC(=O)Cc4ccc(F)cc4)c3)[nH]c12 be said to have pIC50 at or above 7?
Result: Y

Query: Can CC(C(=O)Nc1cc(-c2[nH]c3ccc(F)nc3c2-c2ccccn2)ccn1)c1ccc(F)cc1 (racemic) [Example 1] be said to have pIC50 at or above 7?
Result: Y

Query: Can O=C(Cc1ccc(F)cc1)Nc1cc(-c2[nH]c3cccnc3c2-c2ncccn2)ccn1 [Example 51] be said to have pIC50 at or above 7?
Result: N

Query: Can CC(C(=O)Nc1cc(-c2[nH]c3cccnc3c2-c2ccccn2)ccn1)c1ccc(F)cc1 (single isomer, unassigned; (-)) [Example 8] be said to have pIC50 at or above 7?
Result: N

Query: Can O=C(Cc1ccc(F)cc1)Nc1cc(-c2[nH]c3ccc(F)nc3c2-c2ccccn2)ccn1 be said to have pIC50 at or above 7?
Result: Y

Query: Can COCC(C(=O)Nc1cc(-c2[nH]c3cccnc3c2-c2ccccn2)ccn1)c1ccc(F)cc1 (racemic) be said to have pIC50 at or above 7?
Result: Y

Query: Can COCC(C(=O)Nc1cc(-c2[nH]c3cc(F)cnc3c2-c2ccccn2)ccn1)c1ccc(F)cc1 (racemic) be said to have pIC50 at or above 7?
Result: Y

Query: Can O=C(Cc1ccc(F)cc1)Nc1cc(-c2[nH]c3nccnc3c2-c2ccccn2)ccn1 be said to have pIC50 at or above 7?
Result: Y

Query: Can Cc1cc2[nH]c(-c3ccnc(NC(=O)Cc4ccc(F)cc4)c3)c(-c3ccccn3)c2nc1F be said to have pIC50 at or above 7?
Result: Y

Query: Can O=C(Cc1ccc(F)cc1)Nc1cc(-c2[nH]c3ccc(Cl)nc3c2-c2ccccn2)ccn1 be said to have pIC50 at or above 7?
Result: Y

Query: Can O=C(Cc1ccc(F)cc1)Nc1cc(-c2[nH]c3c(Cl)ccnc3c2-c2ccccn2)ccn1 be said to have pIC50 at or above 7?
Result: Y

Query: Can O=C(Cc1ccc(F)cc1)Nc1cc(-c2[nH]c3ccc(F)nc3c2-c2ccc(F)cn2)ccn1 be said to have pIC50 at or above 7?
Result: Y

Query: Can CC(C(=O)Nc1cc(-c2[nH]c3cccnc3c2-c2ccccc2)ccn1)c1ccc(F)cc1 (racemic) [Example 11] be said to have pIC50 at or above 7?
Result: N

Query: Can O=C(Cc1ccc(F)cc1)Nc1cc(-c2[nH]c3cccnc3c2-c2ccccn2)ccn1 be said to have pIC50 at or above 7?
Result: Y

Query: Can COCCC(C(=O)Nc1cc(-c2[nH]c3cccnc3c2-c2ccccn2)ccn1)c1ccc(F)cc1 (racemic) be said to have pIC50 at or above 7?
Result: Y

Query: Can O=C(Cc1ccc(F)cc1)Nc1cc(-c2[nH]c3nccnc3c2-c2ccccc2)ccn1 be said to have pIC50 at or above 7?
Result: N

Query: Can CC(C(=O)Nc1cc(-c2[nH]c3cc(Cl)cnc3c2-c2ccccn2)ccn1)c1ccc(F)cc1 (stereo not drawn) be said to have pIC50 at or above 7?
Result: N

Query: Can O=C(Cc1ccc(F)cc1)Nc1cc(-c2[nH]c3cc(F)cnc3c2-c2ccccc2)ccn1 be said to have pIC50 at or above 7?
Result: N

Query: Can COCCc1ccnc2c(-c3ccccn3)c(-c3ccnc(NC(=O)Cc4ccc(F)cc4)c3)[nH]c12 be said to have pIC50 at or above 7?
Result: Y

Query: Can O=C(Cc1ccc(F)cc1)Nc1cc(-c2[nH]c3cccnc3c2-c2ccccc2)ccn1 be said to have pIC50 at or above 7?
Result: Y

Query: Can CN1CCN(c2ccnc3c(-c4ccccn4)c(-c4ccnc(NC(=O)Cc5ccc(F)cc5)c4)[nH]c23)CC1 be said to have pIC50 at or above 7?
Result: Y

Query: Can CC(C(=O)Nc1cc(-c2[nH]c3cccnc3c2-c2ccccc2)ccn1)c1ccc(F)cc1 (single isomer, unassigned; (-)) [Example 12] be said to have pIC50 at or above 7?
Result: N

Reference source for all entries: patent US20230339939A1
